Origin of the recorded values: patent US11034725B2

Measured pIC50, listed per entry.
Biological target: PCSK9Δhelix (Homo sapiens, UniProt Q8NBP7)
Construct: Human PCSK9 construct M1-Q692 with an engineered TEV site (residue deletion Y166, R167); made in house; host or cells: CHO
Sequence (Q8NBP7 with tags, fused parts or gaps limits assumed): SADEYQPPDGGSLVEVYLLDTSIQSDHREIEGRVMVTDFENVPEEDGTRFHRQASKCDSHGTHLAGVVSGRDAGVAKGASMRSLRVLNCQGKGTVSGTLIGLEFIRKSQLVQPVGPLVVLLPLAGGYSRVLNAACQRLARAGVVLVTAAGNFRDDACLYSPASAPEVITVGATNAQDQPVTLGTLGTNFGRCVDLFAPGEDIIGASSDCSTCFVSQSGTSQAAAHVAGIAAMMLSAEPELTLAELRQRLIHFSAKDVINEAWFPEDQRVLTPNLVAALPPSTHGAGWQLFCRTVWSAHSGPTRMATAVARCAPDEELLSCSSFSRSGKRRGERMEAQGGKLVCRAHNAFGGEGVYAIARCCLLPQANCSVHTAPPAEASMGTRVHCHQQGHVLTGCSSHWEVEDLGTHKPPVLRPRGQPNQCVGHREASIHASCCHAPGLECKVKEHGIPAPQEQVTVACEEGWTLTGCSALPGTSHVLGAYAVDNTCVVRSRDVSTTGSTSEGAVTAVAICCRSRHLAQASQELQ
Sequence (Q8NBP7 31-152 partner limits assumed): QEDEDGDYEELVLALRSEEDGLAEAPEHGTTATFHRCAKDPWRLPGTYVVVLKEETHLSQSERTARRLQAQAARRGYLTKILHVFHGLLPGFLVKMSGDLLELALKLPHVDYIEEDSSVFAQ
Assay: PCSK9Δhelix/Ab20 TR-FRET binding assay
Conditions: TR-FRET; Table 8E, additional compounds; read-out: PCSK9Δhelix/Ab20 IC50
Just the number, please; pIC50 means minus log10 of the concentration in mol/L.

{"substance": "Ac-GGMPWNLVRIGLLR-NH2 [Compound 125]", "pIC50": 5.15}

Ask | What value of pIC50 has been reported for the following substance? Ac-GLMPWNLVRIGLLR-NH2 [Compound 124]
Reply | 5.41

Ask | Further, for Ac-SGDLMPWNLVRIGLLR-NH2 [Compound 122] ?
Reply | 5.25

Ask | Further, for Ac-DLMPWNLKRIGLLR-NH2 [Compound 158] ?
Reply | 4.92

Ask | Further, for Ac-DLMPWNLVRIGLPR-NH2 [Compound 160] ?
Reply | 4.72

----------
System: His-EGF(A)-Fc
Assay: His-EGF(A)-Fc TR-FRET counterscreen
Settings: TR-FRET counterscreen; Table 8D; * = some inhibition at highest concentrations, not sufficient to fit an IC50
pIC50: −log10 of the molar value. Bridge positions count the residues as written; N and C are the ends. Peptide text beside a SMILES is read from it.
reported_property: pIC50

Ask | What value of pIC50 has been reported for the following molecule? CC[C@H](C)[C@@H]1NC(=O)[C@H](CCCNC(=N)N)NC(=O)[C@H](CCCCN)NC(=O)[C@H](CC(C)C)NC(=O)[C@H](CC(N)=O)NC(=O)[C@H](Cc2c[nH]c3ccccc23)NC(=O)[C@H](CC(C)C)NC(=O)[C@@H](NC(=O)[C@H](Cc2c[nH]c3ccccc23)NC(C)=O)CSSC[C@@H](C(=O)N[C@@H](CCC(=O)O)C(=O)N[C@@H](Cc2ccc(O)cc2)C(N)=O)NC(=O)[C@H](CCC(N)=O)NC(=O)[C@H](CO)NC(=O)CNC1=O [Compound 65] (Ac-WCLWNLKRIGSQCEY-NH2; disulfide 2-13)
Reply | < 4.30

----------
Measured pIC50, listed per entry.
System: His-EGF(A)-Fc
Assay: His-EGF(A)-Fc TR-FRET counterscreen
Settings: TR-FRET counterscreen; Table 8E, additional compounds
Square brackets hold non-standard residues; d marks the D form. Peptide text beside a SMILES is read from it. * marks the point of attachment. Trp(6-Br) = N[C@@H](Cc1c[nH]c2cc(Br)ccc12)C(=O)O; Trp(6-Cl) = N[C@@H](Cc1c[nH]c2cc(Cl)ccc12)C(=O)O; hArg = N=C(N)NCCCC[C@H](N)C(=O)O; Pentanoyl = CCCCC(=O)*
Just the number, please; pIC50 means minus log10 of the concentration in mol/L.

See these solved cases before continuing.
{"compound": "CCCCC(=O)N[C@@H](Cc1c[nH]c2ccccc12)C(=O)N[C@@H](CC(N)=O)C(=O)N[C@@H](CC(C)C)C(=O)N[C@H](C(=O)N[C@@H](CCCCNC(=N)N)C(=O)N[C@H](C(=O)NCC(=O)N[C@@H](CC(C)C)C(=O)N[C@@H](CC(C)C)C(=O)N[C@@H](CCCNC(=N)N)C(=O)O)[C@@H](C)CC)C(C)C [Compound 195, n-BuC(O)-WNLV(homoR)IGLLR] (Pentanoyl-WNLV[hArg]IGLLR-OH)", "pIC50": 4.35}
{"compound": "CCCCC(=O)N[C@@H](Cc1c[nH]c2cc(Br)ccc12)C(=O)N[C@@H](CC(N)=O)C(=O)N[C@@H](CC(C)C)C(=O)N[C@H](C(=O)N[C@@H](CCCNC(=N)N)C(=O)N[C@H](C(=O)NCC(=O)N[C@@H](CC(C)C)C(=O)N[C@H](C(=O)N[C@@H](CCCNC(=N)N)C(N)=O)[C@@H](C)O)[C@@H](C)CC)C(C)C [Compound 187] (Pentanoyl-[Trp(6-Br)]NLVRIGLTR-NH2)", "pIC50": 4.42}

Let us examine a further case.
Ask | What value of pIC50 has been reported for the following compound? CCCCC(=O)N[C@@H](Cc1c[nH]c2cc(Cl)ccc12)C(=O)N[C@@H](CC(N)=O)C(=O)N[C@@H](CC(C)C)C(=O)N[C@H](C(=O)N[C@@H](CCCNC(=N)N)C(=O)N[C@H](C(=O)NCC(=O)N[C@@H](CC(C)C)C(=O)N[C@H](C(=O)N[C@@H](CCCNC(=N)N)C(N)=O)[C@@H](C)O)[C@@H](C)CC)C(C)C [Compound 186] (Pentanoyl-[Trp(6-Cl)]NLVRIGLTR-NH2)
Reply | 4.34
